# EXPERIMENTAL_TARGET: Human immunodeficiency virus type 1 protease (Human immunodeficiency virus 1, UniProt Q72874)
Starred links: 1 amine or outer side, 2 acyl side, 3 side chain; linkers in the order of their positions; H or OH if unused. Non-standard residues stand in square brackets, D forms with d. Residues, ends and D or L forms follow the SMILES beside them. *: point of attachment. X2 = O=C([C@H](Cc1ccccc1)NC(=S)[C@H](Cc1ccccc1)N[*:1])[*:2]; AlaΨ(CSNH)Ala = C[C@H](NC(=S)[C@H](C)N[*:1])C(=O)[*:2]; X5 = C[C@H](N[*:1])C(=S)N[C@@H](Cc1ccccc1)C(=O)[*:2]; X1 = COC(=O)[C@@H](NC(=S)[C@@H](N*)C(C)C)C(C)C; Boc = CC(C)(C)OC(=O)*
MEASURED_PARAMETER: IC50 (µM)
Give bare numbers, in µM.

Some compounds with known IC50 results, for comparison:
Query COC(=O)[C@@H](NC(=O)[C@@H](NC(=O)[C@H](Cc1ccccc1)NC(=O)[C@H](Cc1ccccc1)NC(=O)[C@H](C)/N=C(\S)[C@H](C)NC(=O)OC(C)(C)C)C(C)C)C(C)C (Boc-[AlaΨ(CSNH)Ala]FFVV-OMe) yields IC50 of 160

Query COC(=O)[C@@H](NC(=O)[C@@H](NC(=O)[C@H](Cc1ccccc1)NC(=S)[C@H](Cc1ccccc1)NC(=O)[C@H](C)NC(=O)[C@H](C)NC(=O)OC(C)(C)C)C(C)C)C(C)C (Boc-AA[X2]VV-OMe) yields IC50 of 18

Query COC(=O)[C@@H](NC(=S)[C@@H](NC(=O)[C@H](Cc1ccccc1)NC(=O)[C@H](Cc1ccccc1)NC(=O)[C@H](C)NC(=O)[C@H](C)NC(=O)OC(C)(C)C)C(C)C)C(C)C (Boc-AAFF-X1) yields IC50 of 4.5

***
Query COC(=O)[C@@H](NC(=O)[C@@H](NC(=O)[C@H](Cc1ccccc1)NC(=O)[C@H](Cc1ccccc1)NC(=S)[C@H](C)NC(=O)[C@H](C)NC(=O)OC(C)(C)C)C(C)C)C(C)C (Boc-A[X5]FVV-OMe) yields IC50 of 51
